- Tested on: ARID1A-WT HCT116 cells
- ASSAY_NAME: Drug library screen, cell viability (CellTiter-Glo)
- Assay type: cell-based, human
- CONDITION_CONTEXT: HCT116 ARID1A-WT; 10 μM for 5 days; relative to cells treated with solvent (DMSO)
- Protocol: ARID1A-WT and ARID1A-KO HCT116 cancer cells were used for screening assays. […] Cell viability was assessed after 5 days using the CellTiter-Glo Luminescent Cell Viability Assay (Promega). Luminescence was measured using an Envision Multi-label plate reader (PerkinElmer). The luminescence reading was used to determine the cell viability relative to that of cells treated with solvent (DMSO). […]
Peptide text beside a SMILES is read from it. * marks the point of attachment. Cbz = O=C(OCc1ccccc1)*; CH2Cl = ClC*
RESULT_TYPE: Cell viability, WT
Would you mind answering with just the numeric figure?

O=C(Nc1nc2ccccc2n1CCN1CCOCC1)c1cccc([N+](=O)[O-])c1    142.234
Cc1cccc(-c2nn3c(c2-c2ccnc4ccc(C(N)=O)cc24)CCC3)n1    91.31
c1ccc2c(-c3cnn4cc(-c5ccc(N6CCNCC6)cc5)cnc34)ccnc2c1    2.832
NCCCC(N)(C(=O)O)C(F)F (stereo not drawn)    98.8
CCOC(=O)[C@H]1O[C@@H]1C(=O)N[C@@H](CC(C)C)C(=O)NCCC(C)C [E-64d]    100.8821

Fill blank: measured Cell viability, WT of the compound CC(C)C[C@H](NC(=O)CNC(=O)OCc1ccccc1)C(=O)N[C@@H](Cc1ccccc1)C(=O)CCl [Z-GLF-CMK] (Cbz-Gly-Leu-Phe-CH2Cl) is ____.
4.255

Fill blank: measured Cell viability, WT of the compound "Cc1nc2c(O)cccc2c(=O)[nH]1" is ____.
174.885

Fill blank: measured Cell viability, WT of the compound "CC(C)c1cc(/C=C(\C#N)C(=O)NCCCc2ccccc2)cc(C(C)C)c1O" is ____.
165.2374

###

Let's look at some molecules and their measured Cell viability, WT.
- Test system: ARID1A-WT HCT116 cells
- ASSAY_NAME: Drug library screen, cell viability (CellTiter-Glo)
- Type: cell-based, human
- CONDITION_CONTEXT: HCT116 ARID1A-WT; 10 μM for 5 days; relative to cells treated with solvent (DMSO)
Would you mind answering with just the numeric figure?

Here are 10 molecules together with their reported answers.
CC(C)C(C(=O)O)N1C(=O)/C(=C\c2ccc(Br)cc2)SC1=S (centres unmarked)    99.91
CN(C)CCCCC(=O)Nc1ccc(NC(=S)NC(=O)c2ccc(C(C)(C)C)cc2)cc1    2.514
CC(C)(C)n1nc(-c2cccc3ccccc23)c2c(N)ncnc21    76.55
COc1ccc2c3c([nH]c2c1)[C@H](C=C(C)C)N1C(=O)[C@@H]2CCCN2C(=O)[C@@H]1C3    90.41
CCN(CC)CCCCNc1ncc2cc(-c3cc(OC)cc(OC)c3)c(NC(=O)NC(C)(C)C)nc2n1    8.446
c1cc(-c2cnn3cc(-c4ccc(OCCN5CCCCC5)cc4)cnc23)ccn1    6.447
NS(=O)(=O)c1ccc(Nc2nc(OCC3CCCCC3)c3[nH]cnc3n2)cc1    112.51
CCCCCC#CCC#CCC#CCC#CCCCC(=O)O    95.86
O=C(Nc1cccc2cccnc12)c1ccc(N2C(=O)[C@@H]3[C@H](C2=O)[C@@H]2C=C[C@H]3C2)cc1 [IWR-1-endo]    76.34
Cc1ccc2nc(NC(=O)CSc3nc4c(c(=O)n3-c3ccccc3)SCC4)sc2c1    78.56

Fill blank: measured Cell viability, WT of the molecule "Nc1ncn([C@@H]2O[C@H](CO)[C@@H](O)[C@H]2O)c(=O)n1" is ____.
86.54

Fill blank: measured Cell viability, WT of the molecule "C[C@H](NC(=O)Cc1cc(F)cc(F)c1)C(=O)N[C@H](C(=O)OC(C)(C)C)c1ccccc1" is ____.
93.12

Fill blank: measured Cell viability, WT of the molecule C[S+]([O-])c1ccc(-c2nc(-c3ccc(F)cc3)c(-c3ccncc3)[nH]2)cc1 (centres unmarked) is ____.
163.1226

Fill blank: measured Cell viability, WT of the molecule "Cc1cccc(-c2nn(C(=S)Nc3ccccc3)cc2-c2ccnc3ccccc23)n1" is ____.
77.92

Fill blank: measured Cell viability, WT of the molecule "O=C1C(Nc2ccccc2)=CC(=O)c2ncccc21" is ____.
4.357

Fill blank: measured Cell viability, WT of the molecule "CCCCCCCCCCCCCCOc1ccc(C(=O)O)o1" is ____.
75.72

Fill blank: measured Cell viability, WT of the molecule "CC(C)(O)/C=C/C(=O)[C@](C)(O)[C@H]1[C@H](O)C[C@@]2(C)[C@@H]3CC=C4[C@@H](C=C(O)C(=O)C4(C)C)[C@]3(C)C(=O)C[C@]12C" is ____.
13.95

###

- Test system: ARID1A-KO HCT116 cells
- ASSAY_NAME: Drug library screen, cell viability (CellTiter-Glo)
- Format: cell-based, human
- CONDITION_CONTEXT: HCT116 ARID1A-KO; 10 μM for 5 days; relative to cells treated with solvent (DMSO)
RESULT_TYPE: Cell viability, KO
Would you mind answering with just the numeric figure?

Here are 5 compounds together with their reported answers.
O=Cc1ccc(N2CCOCC2)cc1O [IC60211]    174.6736
NC(=O)C1CCCc2c1[nH]c1ccc(Cl)cc21 (stereo not shown) [SIRT1 inhibitor III]    98.94
CCCCCCCC(=O)OCCOC(=O)CCCCCCC [Dioctanoylglycol]    109.4112
CCC(=C/[C@H](C)C/C=C/C(C)=C/[C@@H](C)C(=O)[C@@H](C)[C@H](O)[C@@H](C)C/C(C)=C/C(=O)O)/C=C/[C@@H]1OC(=O)C=C[C@@H]1C [Leptomycin B*, Leptomycin B]    4.969
C=CCNC1=C2C[C@@H](C)C[C@H](OC)[C@H](O)[C@@H](C)/C=C(\C)[C@H](OC(N)=O)[C@@H](OC)/C=C\C=C(/C)C(=O)NC(=CC1=O)C2=O [17-AAG]    8.214

Fill blank: measured Cell viability, KO of the compound CC1CCN=C(N)S1.Cl (stereo not shown) [AMT, HCl] is ____.
139.818

Fill blank: measured Cell viability, KO of the compound CC(C)(C)n1nc(-c2cccc3ccccc23)c2c(N)ncnc21 [PP1 analog] is ____.
69.2339

Fill blank: measured Cell viability, KO of the compound NC(=O)Nc1sc(-c2ccccc2)cc1C(N)=O [IKK-2 inhibitor VI] is ____.
22.26

Fill blank: measured Cell viability, KO of the compound "COc1cc2c(cc1OC)-c1[nH]nc(Nc3cccc(F)c3)c1C2" is ____.
12.89

Fill blank: measured Cell viability, KO of the compound Clc1ccccc1CNCC1CCC(CNCc2ccccc2Cl)CC1 (stereo not shown) [AY 9944] is ____.
50.15

###

- ASSAY_NAME: Drug library screen, cell viability (CellTiter-Glo)
- Assay type: cell-based, human
- CONDITION_CONTEXT: human; HCT116 ARID1A-WT; 10 μM for 5 days; relative to cells treated with solvent (DMSO); read-out: Cell viability, WT
Where a name gives a salt, the structure may show the parent alone.
We label by threshold. Values of viability at 5 days, 10 μM strictly beneath 90% are 1. Values of 90% and up are 0.

Cc1ccc(NC(=O)c2ccc(CN3CCN(C)CC3)cc2)cc1Nc1nccc(-c2cccnc2)n1 [imatinib mesylate]    1
CCn1cc(C(=O)O)c(=O)c2ccc(C)nc21 [Nalidixic acid]    0
O=C1CCC(N2C(=O)c3ccccc3C2=O)C(=O)N1 (stereo not drawn) [thalidomide]    0
Oc1nc(-c2ccc(C(F)(F)F)cc2)nc2c1CSCC2 [XAV939]    1
CNC(=O)c1cc(Oc2ccc(NC(=O)Nc3ccc(Cl)c(C(F)(F)F)c3)cc2)ccn1 [sorafenib]    1

Answer whether the compound O=C(c1cc(Cc2n[nH]c(=O)c3ccccc23)ccc1F)N1CCN(C(=O)C2CC2)CC1 [Olaparib] has viability at 5 days, 10 μM strictly less than 90%
1

Answer whether the compound N#CC[C@H](C1CCCC1)n1cc(-c2ncnc3[nH]ccc23)cn1 [Ruxolitinib] has viability at 5 days, 10 μM strictly less than 90%
1

Answer whether the compound O=C(O)c1ccccc1Nc1ccccc1 [N-phenylanthranilic acid] has viability at 5 days, 10 μM strictly less than 90%
0

###

- ASSAY_NAME: Drug library screen, cell viability (CellTiter-Glo)
- Format: cell-based, human
- CONDITION_CONTEXT: human; HCT116 ARID1A-WT; 10 μM for 5 days; relative to cells treated with solvent (DMSO); read-out: Cell viability, WT
RESULT_TYPE: viability at 5 days, 10 μM (%)
Kindly provide the numeric value in % only, without the unit symbol.

Here are 3 compounds together with their reported answers.
CNC(=O)c1ccccc1Sc1ccc2c(/C=C/c3ccccn3)n[nH]c2c1 [Axitinib]    36.4
NC1=N/C(=C2/CCNC(=O)c3[nH]ccc32)C(=O)N1 [Debromohymenialdisine (DBH), Debromohymenialdisine]    62.9
CC1=C(/C=C/C(C)=C/C=C/C(C)=C/C(=O)O)C(C)(C)CCC1 [tretinoin]    77.7

Fill blank: measured viability at 5 days, 10 μM of the compound NC(=O)NO [Hydroxyurea] is ____.
157

Fill blank: measured viability at 5 days, 10 μM of the compound CC1=NS(=O)(=O)c2cc(Cl)ccc2N1 [Diazoxide] is ____.
103

Fill blank: measured viability at 5 days, 10 μM of the compound NC(=O)c1ccc(I)c([N+](=O)[O-])c1 [BSI-201 (Iniparib), Iniparib] is ____.
63.5

Fill blank: measured viability at 5 days, 10 μM of the compound NNCCc1ccccc1 [Phenelzine] is ____.
101

Fill blank: measured viability at 5 days, 10 μM of the compound CN(C)CC[C@H](CSc1ccccc1)Nc1ccc(S(=O)(=O)NC(=O)c2ccc(N3CCN(Cc4ccccc4-c4ccc(Cl)cc4)CC3)cc2)cc1[N+](=O)[O-] [ABT-737] is ____.
94.4

Fill blank: measured viability at 5 days, 10 μM of the compound Oc1c2ccccc2c2c3c(cccc13)N=N2 [SP600125] is ____.
172

Fill blank: measured viability at 5 days, 10 μM of the compound O=C(O)c1nn(Cc2ccc(Cl)cc2Cl)c2ccccc12 [Lonidamine] is ____.
98.4

Fill blank: measured viability at 5 days, 10 μM of the compound CSc1ccc(/C=C2/C(C)=C(CC(=O)O)c3cc(F)ccc32)cc1 [Sulindac sulfide] is ____.
195

Fill blank: measured viability at 5 days, 10 μM of the compound Cc1ncc2ccccc2c1C#N [4-cyano-3-methylisoquinoline] is ____.
143

Fill blank: measured viability at 5 days, 10 μM of the compound N=C(N)NC(=O)c1nc(Cl)c(N)nc1N [Amiloride] is ____.
106

Fill blank: measured viability at 5 days, 10 μM of the compound COc1c(C=O)c(O)cc2c1C(=O)c1ccccc1C2=O [Damnacanthal] is ____.
185

Fill blank: measured viability at 5 days, 10 μM of the compound CS(=O)(=O)Nc1ccc([N+](=O)[O-])cc1OC1CCCCC1 [NS-398] is ____.
177

Fill blank: measured viability at 5 days, 10 μM of the compound COC[C@H]1OC(=O)c2coc3c2[C@@]1(C)C1=C(C3=O)[C@@H]2CCC(=O)[C@@]2(C)C[C@H]1OC(C)=O [Wortmannin] is ____.
181
